From: patent US20240182536A1

Target: T1, human IL-18 binding protein (human, UniProt O95998 31-194); note: unit not given here
T1 sequence (looked up): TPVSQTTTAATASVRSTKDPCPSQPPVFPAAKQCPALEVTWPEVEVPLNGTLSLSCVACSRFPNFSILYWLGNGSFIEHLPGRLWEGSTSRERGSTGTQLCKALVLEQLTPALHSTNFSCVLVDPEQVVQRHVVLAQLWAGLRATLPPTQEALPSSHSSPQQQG
Experiment: cell-based or functional assay

| binder | HEK-Blue activity, +100 nM BP, DF-10000 |
| --- | --- |
| yeast display IL-18 variant K53T, S55A (ligand) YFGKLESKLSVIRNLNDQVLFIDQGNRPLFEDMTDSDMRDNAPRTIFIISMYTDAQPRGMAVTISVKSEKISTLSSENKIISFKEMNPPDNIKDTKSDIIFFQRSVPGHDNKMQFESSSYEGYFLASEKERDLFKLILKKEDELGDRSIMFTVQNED | 1.85 |
| yeast display IL-18 variant K53Q, D54N, S55M, Q56H (ligand) YFGKLESKLSVIRNLNDQVLFIDQGNRPLFEDMTDSDMRDNAPRTIFIISMYQNMHPRGMAVTISVKSEKISTLSSENKIISFKEMNPPDNIKDTKSDIIFFQRSVPGHDNKMQFESSSYEGYFLASEKERDLFKLILKKEDELGDRSIMFTVQNED | 0.21 |
| yeast display IL-18 variant K53S, S55K (ligand) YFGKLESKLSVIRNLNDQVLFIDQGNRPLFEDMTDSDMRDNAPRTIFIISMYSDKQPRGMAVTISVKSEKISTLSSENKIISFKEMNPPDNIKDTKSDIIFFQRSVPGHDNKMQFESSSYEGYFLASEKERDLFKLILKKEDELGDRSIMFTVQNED | 2.03 |
| yeast display IL-18 variant S36E, D37E, D40K, N41T, K53T, S55Q, R104H (ligand) YFGKLESKLSVIRNLNDQVLFIDQGNRPLFEDMTDEEMRKTAPRTIFIISMYTDQQPRGMAVTISVKSEKISTLSSENKIISFKEMNPPDNIKDTKSDIIFFQHSVPGHDNKMQFESSSYEGYFLASEKERDLFKLILKKEDELGDRSIMFTVQNED | 0.81 |
| yeast display IL-18 variant K53N, S55M, R104S, P107A (ligand) YFGKLESKLSVIRNLNDQVLFIDQGNRPLFEDMTDSDMRDNAPRTIFIISMYNDMQPRGMAVTISVKSEKISTLSSENKIISFKEMNPPDNIKDTKSDIIFFQSSVAGHDNKMQFESSSYEGYFLASEKERDLFKLILKKEDELGDRSIMFTVQNED | 0.15 |
| yeast display IL-18 variant L5W, S7Y, K53H, S55M (ligand) YFGKWEYKLSVIRNLNDQVLFIDQGNRPLFEDMTDSDMRDNAPRTIFIISMYHDMQPRGMAVTISVKSEKISTLSSENKIISFKEMNPPDNIKDTKSDIIFFQRSVPGHDNKMQFESSSYEGYFLASEKERDLFKLILKKEDELGDRSIMFTVQNED | 0.12 |
| yeast display IL-18 variant K53D, S55N (ligand) YFGKLESKLSVIRNLNDQVLFIDQGNRPLFEDMTDSDMRDNAPRTIFIISMYDDNQPRGMAVTISVKSEKISTLSSENKIISFKEMNPPDNIKDTKSDIIFFQRSVPGHDNKMQFESSSYEGYFLASEKERDLFKLILKKEDELGDRSIMFTVQNED | 0.47 |
